- Test system: Staphylococcus aureus
- Protocol summary: Bactericidal activity against Staphylococcus aureus NCTC 8530 planktonic forms
- Assay type: functional
Value type: MBC

input: If you can, please state the reported MBC value of CCCCCCCCCCCCCC(=O)N[C@@H](C)C(=O)N[C@@H](Cc1ccccc1)C(=O)N[C@H](C(=O)N[C@H](CCCNC(=N)N)C(=O)N[C@H](CCCNC(=N)N)C(=O)N[C@H](CCCNC(=N)N)C(=O)N[C@@H](CO)C(=O)N[C@@H](Cc1ccc(O)cc1)C(=O)N[C@@H](CO)C(=O)N[C@H](C(=O)N[C@@H](CCC(=O)O)C(=O)N[C@@H](Cc1ccc(O)cc1)C(=O)N[C@@H](CO)C(=O)N[C@@H](Cc1ccc(O)cc1)C(=O)NCC(=O)N[C@H](C(=O)N[C@H](C(=O)N[C@H](C(N)=O)C(C)C)[C@@H](C)O)[C@@H](C)O)[C@@H](C)O)[C@@H](C)O .
output: 50 µM

input: Note, next up: CCCCCCCCCCCCCC(=O)N[C@@H](C)C(=O)N[C@@H](Cc1ccccc1)C(=O)N[C@H](C(=O)N[C@@H](CCCNC(=N)N)C(=O)N[C@@H](CCCNC(=N)N)C(=O)N[C@@H](CCCNC(=N)N)C(=O)N[C@@H](CO)C(=O)N[C@@H](Cc1ccc(O)cc1)C(=O)N[C@@H](CO)C(=O)N[C@H](C(=O)N[C@@H](CCC(=O)O)C(=O)N[C@@H](Cc1ccc(O)cc1)C(=O)N[C@@H](CO)C(=O)N[C@@H](Cc1ccc(O)cc1)C(=O)NCC(=O)N[C@H](C(=O)N[C@H](C(=O)N[C@H](C(N)=O)C(C)C)[C@@H](C)O)[C@@H](C)O)[C@@H](C)O)[C@@H](C)O
output: 20 µM
